Test system: Plasmodium falciparum
Test: In vitro antimalarial activity against chloroquine-sensitive Plasmodium falciparum NF54
Type: functional, organism-based
assay_metric: IC50 (nM)
Response body: numeric value in nM, unit text excluded.

C[C@H]1[C@H](c2ccc([C@@H]3O[C@@H]4O[C@]5(C)CC[C@H]6[C@H](C)CC[C@@H]([C@H]3C)[C@@]46OO5)o2)O[C@@H]2O[C@]3(C)CC[C@H]4[C@H](C)CC[C@@H]1[C@@]24OO3: 3.2

(Q) Param item = C[C@H]1[C@@H](C#Cc2ccc(C#C[C@H]3O[C@@H]4O[C@]5(C)CC[C@H]6[C@H](C)CC[C@@H]([C@H]3C)[C@@]46OO5)cc2)O[C@@H]2O[C@]3(C)CC[C@H]4[C@H](C)CC[C@@H]1[C@@]24OO3 ; retrieve measured IC50.
(A) 30

(Q) Same thing, different compound: COc1cc(OC)c([C@@H]2O[C@@H]3O[C@]4(C)CC[C@H]5[C@H](C)CC[C@@H]([C@H]2C)[C@@]35OO4)cc1[C@@H]1O[C@@H]2O[C@]3(C)CC[C@H]4[C@H](C)CC[C@@H]([C@H]1C)[C@@]24OO3
(A) 1.3

(Q) Would you mind doing C[C@@H]1CC[C@H]2[C@@H](C)C(=O)O[C@@H]3O[C@@]4(C)CC[C@@H]1[C@]32OO4 [ARTEMISININ] as well?
(A) 9.7
